Measured values drawn from paper PMC8892849 for this set.

System: prostate carcinoma (PC-3)
Experiment: In vitro cytotoxic assay
Type: cell-based, human
Details: Homo sapiens, 48 h, read-out: IC50 (mean ± SEM) PC-3
Answer each item with its documented pIC50.
Give bare numbers, as −log10 of the molar value.

The following molecules have reported results that may help.
> print(dat)
                                 smiles.str  assay.metric  recorded.number
1                CC(C)NC(=S)NC(=O)Cc1ccccc1         pIC50             4.57
2          O=C(Cc1ccccc1)NC(=S)Nc1cccc(O)c1         pIC50             4.41
3               CC(C)Nc1nnc(Cc2ccccc2)[nH]1         pIC50             4.78
4  O=C(Cc1ccccc1)NC(=S)Nc1ccc([N+](=O)[O-])cc1Cl         pIC50             4.39

pIC50 reading for Oc1cccc(Nc2nnc(Cc3ccccc3)[nH]2)c1 : 4.73

###

Answer each item with its documented IC50 at 48 h.
Experiment: In vitro cytotoxic assay
Format: cell-based
Settings: normal peripheral blood mononuclear cells (PBMCs)
Answers are plain numbers, in µM.

The following compounds have reported results that may help.
> print(dat)
                         smiles.str  recorded.number
1   c1ccc(Cc2nnc(Nc3nccs3)[nH]2)cc1              166
2       CC(C)Nc1nnc(Cc2ccccc2)[nH]1              175
3  O=C(Cc1ccccc1)NC(=S)Nc1cccc(O)c1              158
4   O=C(Cc1ccccc1)Nc1nc2ccccc2[nH]1              179

Attention now shifts to the item below.
IC50 at 48 h reading for O=C(Cc1ccccc1)NC(=S)Nc1ccc([N+](=O)[O-])cc1Cl : 169

###

Molecular target: EGFR^T790M (Homo sapiens, UniProt P00533, T790M)
Sequence (P00533 25-1210 T790M): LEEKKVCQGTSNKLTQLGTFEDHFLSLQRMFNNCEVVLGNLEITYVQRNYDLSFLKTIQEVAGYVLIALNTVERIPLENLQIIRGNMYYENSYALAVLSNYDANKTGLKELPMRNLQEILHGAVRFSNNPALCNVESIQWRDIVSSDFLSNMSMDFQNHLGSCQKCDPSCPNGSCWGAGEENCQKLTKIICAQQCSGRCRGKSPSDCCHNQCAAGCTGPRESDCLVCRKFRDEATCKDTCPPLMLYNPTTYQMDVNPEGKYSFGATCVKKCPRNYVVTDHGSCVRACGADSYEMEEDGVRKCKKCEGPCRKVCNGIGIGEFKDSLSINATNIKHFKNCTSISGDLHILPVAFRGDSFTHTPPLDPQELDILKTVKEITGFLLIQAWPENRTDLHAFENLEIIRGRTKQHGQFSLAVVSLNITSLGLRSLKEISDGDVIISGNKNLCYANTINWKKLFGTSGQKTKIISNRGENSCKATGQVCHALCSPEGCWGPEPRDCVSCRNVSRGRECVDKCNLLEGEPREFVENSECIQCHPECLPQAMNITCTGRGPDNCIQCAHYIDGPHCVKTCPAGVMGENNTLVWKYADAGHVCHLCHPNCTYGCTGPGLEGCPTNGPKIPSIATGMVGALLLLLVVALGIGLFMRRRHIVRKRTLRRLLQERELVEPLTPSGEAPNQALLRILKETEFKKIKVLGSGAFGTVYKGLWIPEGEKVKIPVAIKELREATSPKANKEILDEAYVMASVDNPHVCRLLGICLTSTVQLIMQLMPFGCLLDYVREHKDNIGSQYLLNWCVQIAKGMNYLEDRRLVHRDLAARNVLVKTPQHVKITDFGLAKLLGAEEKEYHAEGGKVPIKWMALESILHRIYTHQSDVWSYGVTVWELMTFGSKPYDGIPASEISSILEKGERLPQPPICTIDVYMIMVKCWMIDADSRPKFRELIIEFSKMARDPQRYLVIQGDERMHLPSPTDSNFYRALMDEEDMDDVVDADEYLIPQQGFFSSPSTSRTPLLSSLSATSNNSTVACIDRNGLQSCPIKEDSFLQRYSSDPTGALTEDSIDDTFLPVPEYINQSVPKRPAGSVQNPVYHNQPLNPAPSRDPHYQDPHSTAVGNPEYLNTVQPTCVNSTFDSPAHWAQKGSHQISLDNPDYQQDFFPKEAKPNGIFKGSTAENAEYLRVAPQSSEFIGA
Assay: HTRF kinase inhibition assay, EGFR^T790M
Answer each item with its documented IC50.
Give bare numbers, in nM.

The following compounds have reported results that may help.
> print(dat)
                                 smiles.str  unit.of.measurement  recorded.number
1   c1ccc(Cc2nc(Nc3nccs3)n(-c3ccccc3)n2)cc1                   nM              120
2  O=[N+]([O-])c1ccc(Nc2nc(Cc3ccccc3)nn2-c2ccccc2)c(Cl)c1                   nM              130
3         Oc1cccc(Nc2nnc(Cc3ccccc3)[nH]2)c1                   nM              140
4               CC(C)Nc1nnc(Cc2ccccc2)[nH]1                   nM              170
5        O=c1nc(Cc2ccccc2)[nH]c(Nc2nccs2)n1                   nM              180

Provide reported IC50 for each item, in the same order as listed.
1. Oc1cccc(Nc2nc(Cc3ccccc3)nn2-c2ccccc2)c1
2. c1ccc(Cc2nnc(Nc3nccs3)[nH]2)cc1

Result block:
90
130

###

Tested on: prostate carcinoma (PC-3)
Experiment: In vitro cytotoxic assay
Format: cell-based, human
Details: Homo sapiens, 48 h, read-out: IC50 (mean ± SEM) PC-3
ASSAY METRIC: IC50 (µM)
Answers are plain numbers, in µM.

The following molecules have reported results that may help.
> print(dat)
                                 smiles.str  unit.of.measurement  recorded.number
1      CC(C)N=c1nc(Cc2ccccc2)[nH]c(=S)[nH]1                   µM             36.6
2  Oc1cccc(N=c2nc(Cc3ccccc3)[nH]c(=S)[nH]2)c1                   µM             32.5
3        O=c1nc(Cc2ccccc2)[nH]c(Nc2nccs2)n1                   µM             17.9
4           c1ccc(Cc2nnc(Nc3nccs3)[nH]2)cc1                   µM             18.2
5    S=c1[nH]c(Cc2ccccc2)nc(=Nc2nccs2)[nH]1                   µM             42.6
6            Nc1ccccc1NC(=S)NC(=O)Cc1ccccc1                   µM             25.4
7  O=[N+]([O-])c1ccc(N=c2nc(Cc3ccccc3)[nH]c(=S)[nH]2)c(Cl)c1                   µM             39.6
8   c1ccc(Cc2nc(Nc3nccs3)n(-c3ccccc3)n2)cc1                   µM             16.3

The reported prostate carcinoma (PC-3) IC50 of O=[N+]([O-])c1ccc(Nc2nc(Cc3ccccc3)nn2-c2ccccc2)c(Cl)c1 is 26.4
